Biological target: T1, phosphorylated human tau protein (human, UniProt P10636-8 1-441, limits assumed, S422 phosphorylation)
T1 construct: also called pTau
T1 sequence (P10636 other isoform, or with tags, fused parts or gaps limits assumed): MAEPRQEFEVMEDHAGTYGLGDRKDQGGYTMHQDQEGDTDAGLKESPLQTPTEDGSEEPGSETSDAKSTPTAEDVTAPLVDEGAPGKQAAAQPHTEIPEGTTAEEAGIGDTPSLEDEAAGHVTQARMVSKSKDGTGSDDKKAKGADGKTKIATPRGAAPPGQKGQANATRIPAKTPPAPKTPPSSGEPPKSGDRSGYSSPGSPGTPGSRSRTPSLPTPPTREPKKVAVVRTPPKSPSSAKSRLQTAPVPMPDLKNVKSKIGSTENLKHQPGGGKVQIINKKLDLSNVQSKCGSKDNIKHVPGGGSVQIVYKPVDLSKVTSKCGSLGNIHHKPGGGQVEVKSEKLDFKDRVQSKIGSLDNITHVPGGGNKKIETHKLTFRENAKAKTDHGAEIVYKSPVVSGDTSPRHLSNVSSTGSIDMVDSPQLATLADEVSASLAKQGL
Assay: SPR BIAcore
quantity kind: BL (RU)
Give your result in RU as a bare value.

Known results for binders:
Rb86 HC 001_IGHV3_23_04 / LC 013--IMGT_hVK_1_17 (antibody, V domains shown) VH: QQLVESGGGLVQPGGSLRLSCAASGFSLSSNAINWVRQAPGKGLEWVGYIAVSGNTYYASWAKGRFTISRDNSKNTLYLQMNSLRAEDTAVYYCGKSNIWGQGTLVTVSS VL: DIQMTQSTSSLSASVGDRVTITCRASQGVRTNKLAWFQQKPGQPPKRLIYSASTLQSGVPSRFSGSGSGTEFTLTISSLQPEDFATYYCLGYFDCSIADCVAFGGGTKVEIK :: 90.9
Rb86 HC 001_IGHV3_23_04 / LC 010--IMGT_hVK_1_17 (antibody, V domains shown) VH: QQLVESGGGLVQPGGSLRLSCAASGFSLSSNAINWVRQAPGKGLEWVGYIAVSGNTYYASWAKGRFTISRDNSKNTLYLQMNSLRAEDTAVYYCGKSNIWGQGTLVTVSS VL: DIQMTQSPSSLSASVGDRVTITCRASQGVRTNKLGWYQQKPGKAPKRLIYSASTLQSGVPSRFSGSGSGTEFTLTISSLQPEDFATYYCLGYFDCSIADCVAFGGGTKVEIK :: -4.7
Rb86 HC 001_IGHV3_23_04 / LC 003--IMGT_hVK_4_1 (antibody, V domains shown) VH: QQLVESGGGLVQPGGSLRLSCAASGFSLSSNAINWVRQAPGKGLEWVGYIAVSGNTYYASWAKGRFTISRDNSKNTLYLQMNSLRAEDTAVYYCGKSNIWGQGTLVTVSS VL: AQVMTQSPDSLAVSLGERATINCKSSQSVRTNKLAWFQQKPGQPPKRLIYSASTLDSGVPDRFSGSGSGTDFTLTISSLQAEDVAVYYCLGYFDCSIADCVAFGGGTEVVVK :: 102

Reported BL for Rb86 HC 001_IGHV3_23_04 / LC 012--IMGT_hVK_1_17 (antibody, V domains shown) VH: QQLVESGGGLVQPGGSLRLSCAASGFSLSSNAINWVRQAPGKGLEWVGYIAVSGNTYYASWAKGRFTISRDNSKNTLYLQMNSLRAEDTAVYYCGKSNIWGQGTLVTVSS VL: DIQMTQSPSSLSASVGDRVTITCRASQGVRTNKLAWFQQKPGQPPKRLIYSASTLQSGVPSRFSGSGSGTEFTLTISSLQPEDFATYYCLGYFDCSIADCVAFGGGTKVEIK : what is it?
92.2

Reported BL for Rb86 HC 001_IGHV3_23_04 / LC 004--IMGT_hVK_4_1 (antibody, V domains shown) VH: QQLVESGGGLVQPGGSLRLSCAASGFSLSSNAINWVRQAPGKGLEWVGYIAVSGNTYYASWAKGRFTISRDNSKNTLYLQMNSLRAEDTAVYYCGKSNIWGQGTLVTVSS VL: DIVMTQSPDSLAVSLGERATINCKSSQSVRTNKLAWFQQKPGQPPKRLIYSASTLDSGVPDRFSGSGSGTDFTLTISSLQAEDVAVYYCLGYFDCSIADCVAFGGGTKVEIK : what is it?
59.2
